Reference source: the MegaScale stability set (Tsuboyama et al. 2023)

B1: EHEE_rd4_0086 (parent)
chain: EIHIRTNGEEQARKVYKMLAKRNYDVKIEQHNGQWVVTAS

Variants of: B1
assay.info: folding stability dG (cDNA display proteolysis); higher = more stable
test.parameters: PBS, room temperature
readout.kind: folding stability dG (kcal/mol)

1) R22A 1.84
2) I4W 1.65
3) V15A 1.12
4) S40R 2.25
5) I2R 0.978
6) Y24D 0.514
7) H31G 0.849
8) E10T 1.78
9) A39Q 0.463
10) K14Y 2.02
11) Q30Y 2.3
